Recorded values, source paper PMC8777952.

Give SI (RPMI7951) for every item shown.
# Tested on: RPMI7951
# EXPERIMENTAL DETAILS: MTT cell viability assay, RPMI7951 melanoma cells
# Assay type: cell-based, human
# TEST PARAMETERS: 24 h; ratio reference cell line FB789 versus melanoma cell line
# Experimental: Preliminary sunscreen data of 4a-d have been reported focusing on SKH1-E cell line, human abdominal skin explants, and in vivo hairless mouse models. Data for photo-adducts 6a-d, 7a-d, and 8a-d are not available. […] The antimelanoma activity was determined using the MTT cell viability assay, following the absorbance change (λmax 570 nm and 630 nm). […] Next, the antimelanoma activity of compounds 8a and 8b was evaluated after loading inside LNPs. […]
Answer field: number only, no words.

SI (RPMI7951) lookup needed for CC12C(=O)NC(=O)N3CCCCCN4C(=O)NC(=O)C1(C)C4C32 (stereo not shown) , thanks.
1.2

Using the record for Cc1cn(CCCn2cc(C)c(=O)[nH]c2=O)c(=O)[nH]c1=O , report its SI (RPMI7951).
2.7

Query: SI (RPMI7951); subject: CC12C(=O)NC(=O)N3CCCN4C(=O)NC(=O)C1(C)C4C32 (stereo not shown)
2.7

Consider the compound shown here: CC12C(=O)NC(=O)N3CCCCCCN4C(=O)NC(=O)C1(C)C4C32 (stereo not shown) What is its recorded SI (RPMI7951)?
1.6

---

# EXPERIMENTAL DETAILS: Loading capacity and loading efficiency of lignin nanoparticles
# Assay type: physicochemical
# TEST PARAMETERS: Compd/KL ratio 1:5
// F strictly below 50% in LE%; T otherwise

Given the entry CC12C(=O)NC(=O)N3CCCN4C(=O)NC(=O)C1(C)C4C32 (centres unmarked) , answer whether its LE% meets or surpasses 50%.
F

Has Cc1cn(CCCCn2cc(C)c(=O)[nH]c2=O)c(=O)[nH]c1=O a recorded LE% greater than or equal to 50%?
T

hey, is LE% for this one >= 50%? CC12C(=O)NC(=O)N3CCCCCCN4C(=O)NC(=O)C1(C)C4C32 (centres unmarked)
T

API: above_or_equal(metric=LE%, cutoff=50%) for item Cc1cn(CCCCCn2cc(C)c(=O)[nH]c2=O)c(=O)[nH]c1=O
T

Is it the case that Cc1cn(CCCCCCn2cc(C)c(=O)[nH]c2=O)c(=O)[nH]c1=O has LE% reaching or exceeding 50%?
T

---

# EXPERIMENTAL DETAILS: MTT cell viability assay, FB789 reference cell line
# Assay type: cell-based
# TEST PARAMETERS: FB789 cells (normal human fibroblast)
ENDPOINT LABEL: CC50 at 24 h (µM)
Provide the reading as a plain figure in µM.

Any idea what CC50 at 24 h was measured for Cc1cn(CCCCn2cc(C)c(=O)[nH]c2=O)c(=O)[nH]c1=O ?
839

Bench note: what CC50 at 24 h did CC12C(=O)NC(=O)N3CCCCCCN4C(=O)NC(=O)C1(C)C4C32 (centres unmarked) show?
377

Item CC12C(=O)NC(=O)N3CCCCCN4C(=O)NC(=O)C1(C)C4C32 (centres unmarked) has what recorded CC50 at 24 h?
234

Form field: reported CC50 at 24 h of Cc1cn(CCCCCn2cc(C)c(=O)[nH]c2=O)c(=O)[nH]c1=O
1660

Please look up its CC50 at 24 h: CC12C(=O)NC(=O)N3CCCCN4C(=O)NC(=O)C1(C)C4C32 (centres unmarked)
109

Sample CC12C(=O)NC(=O)N3CCCN4C(=O)NC(=O)C1(C)C4C32 (centres unmarked) — what was its CC50 at 24 h?
375

I am curious: what CC50 at 24 h value has been reported for Cc1cn(CCCn2cc(C)c(=O)[nH]c2=O)c(=O)[nH]c1=O ?
1450

Name the recorded CC50 at 24 h for Cc1cn(CCCCCCn2cc(C)c(=O)[nH]c2=O)c(=O)[nH]c1=O .
392

---

# EXPERIMENTAL DETAILS: Loading capacity and loading efficiency of lignin nanoparticles
# Format: physicochemical
# TEST PARAMETERS: Compd/KL ratio 1:5
ENDPOINT LABEL: LC% (%)
Your answer should be a plain number; it is taken to be in %.

Any idea what LC% was measured for Cc1cn(CCCCn2cc(C)c(=O)[nH]c2=O)c(=O)[nH]c1=O [Compound 4b, N1,N1′-(butane-1,4-diyl)bis-thymine] ?
10.38

Using the record for CC12C(=O)NC(=O)N3CCCN4C(=O)NC(=O)C1(C)C4C32 (stereo not shown) [Compound 6a] , report its LC%.
6.93

Which LC% is reported for this molecule? CC12C(=O)NC(=O)N3CCCCCN4C(=O)NC(=O)C1(C)C4C32 (stereo not shown) [Compound 6c]
11.46

Entry CC12C(=O)NC(=O)N3CCCCN4C(=O)NC(=O)C1(C)C4C32 (stereo not shown) [Compound 6b] has what LC%?
9.59

---

# Test system: RPMI7951
# EXPERIMENTAL DETAILS: MTT cell viability assay, RPMI7951 melanoma cells
# Type: cell-based, human
# TEST PARAMETERS: 24 h; ratio reference cell line FB789 versus melanoma cell line
ENDPOINT LABEL: SI (RPMI7951)
Reply with just the number.

Please give the measured SI (RPMI7951) for this compound: CC12C(=O)NC(=O)N3CCCCN4C(=O)NC(=O)C1(C)C4C32 (stereo not shown)
1.4

Item Cc1cn(CCCCn2cc(C)c(=O)[nH]c2=O)c(=O)[nH]c1=O has what recorded SI (RPMI7951)?
0.07

Fill blank: measured SI (RPMI7951) of the compound Cc1cn(CCCCCn2cc(C)c(=O)[nH]c2=O)c(=O)[nH]c1=O is ____.
4.6

I am curious: what SI (RPMI7951) value has been reported for Cc1cn(CCCCCCn2cc(C)c(=O)[nH]c2=O)c(=O)[nH]c1=O ?
1.14

---

# EXPERIMENTAL DETAILS: Loading capacity and loading efficiency of lignin nanoparticles
# Assay type: physicochemical
# TEST PARAMETERS: Compd/KL ratio 1:10
ENDPOINT LABEL: LC%
Write your answer as a measured quantity: the number, then the unit.

Give its LC% value. Item: CC12C(=O)NC(=O)N3CCCCN4C(=O)NC(=O)C1(C)C4C32 (stereo not shown) [Compound 6b]
9.33%

GET /values?readout=LC%&item= CC12C(=O)NC(=O)N3CCCCCCN4C(=O)NC(=O)C1(C)C4C32 (stereo not shown) [Compound 6d]
11.54%

Fill in the blank: the reported LC% of Cc1cn(CCCn2cc(C)c(=O)[nH]c2=O)c(=O)[nH]c1=O [Compound 4a, N1,N1′-(propane-1,3-diyl)bis-thymine] is ____.
4.93%

// LC% lookup, key: CC12C(=O)NC(=O)N3CCCCCN4C(=O)NC(=O)C1(C)C4C32 (stereo not shown) [Compound 6c]
10.48%

---

Task for the reader: assign each of the following molecules its reported LE%.
# EXPERIMENTAL DETAILS: Loading capacity and loading efficiency of lignin nanoparticles
# Type: physicochemical
# TEST PARAMETERS: Compd/KL ratio 1:10
Give the value in % but do not write % after it.

Consider the molecule CC12C(=O)NC(=O)N3CCCCCN4C(=O)NC(=O)C1(C)C4C32 (centres unmarked) and give its measured LE%.
47.86

Value lookup for LE%; key = Cc1cn(CCCn2cc(C)c(=O)[nH]c2=O)c(=O)[nH]c1=O
49.26

Query: LE%; subject: Cc1cn(CCCCCn2cc(C)c(=O)[nH]c2=O)c(=O)[nH]c1=O
62.59

Reported LE%, molecule Cc1cn(CCCCn2cc(C)c(=O)[nH]c2=O)c(=O)[nH]c1=O : ____
52.40

Endpoint output: LE% of Cc1cn(CCCCCCn2cc(C)c(=O)[nH]c2=O)c(=O)[nH]c1=O . Value?
71.41

Endpoint output: LE% of CC12C(=O)NC(=O)N3CCCCN4C(=O)NC(=O)C1(C)C4C32 (centres unmarked) . Value?
50.74

If you can, please state the reported LE% value of CC12C(=O)NC(=O)N3CCCN4C(=O)NC(=O)C1(C)C4C32 (centres unmarked) .
41.12

# query: LE% of entry CC12C(=O)NC(=O)N3CCCCCCN4C(=O)NC(=O)C1(C)C4C32 (centres unmarked)
71.98

---

# EXPERIMENTAL DETAILS: Loading capacity and loading efficiency of lignin nanoparticles
# Format: physicochemical
# TEST PARAMETERS: Compd/KL ratio 1:10
# Procedure: A further increase in the secondary solvent afforded low stable colloidal LNPs (18 mL; Table 3, entry 4) and aggregates (24 mL; Table 3, entry 5). […] The loading capacity (LC) and loading efficiency (LE) Equations (1) and (2) were measured as a function of the concentration of the encapsulated compound [55, 56, 57, 58]. […] LNPs were produced and loaded by the nanoprecipitation technique. […] The loading capacity (LC) and loading efficiency (LE) were evaluated by UHPLC analysis.
ENDPOINT LABEL: LC%
Write the numeric value and append its unit.

Query: LC%; subject: CC12C(=O)NC(=O)N3CCCN4C(=O)NC(=O)C1(C)C4C32 (stereo not shown)
6.81%

Which LC% value is on record for Cc1cn(CCCCCCn2cc(C)c(=O)[nH]c2=O)c(=O)[nH]c1=O ?
7.14%

Bench note: what LC% did Cc1cn(CCCCn2cc(C)c(=O)[nH]c2=O)c(=O)[nH]c1=O show?
4.24%

Bench note: what LC% did Cc1cn(CCCCCn2cc(C)c(=O)[nH]c2=O)c(=O)[nH]c1=O show?
6.97%
